- experimental-target: Histamine H2 receptor (Homo sapiens); note: assay procedure not described here
- Sequence (P25021 whole entry): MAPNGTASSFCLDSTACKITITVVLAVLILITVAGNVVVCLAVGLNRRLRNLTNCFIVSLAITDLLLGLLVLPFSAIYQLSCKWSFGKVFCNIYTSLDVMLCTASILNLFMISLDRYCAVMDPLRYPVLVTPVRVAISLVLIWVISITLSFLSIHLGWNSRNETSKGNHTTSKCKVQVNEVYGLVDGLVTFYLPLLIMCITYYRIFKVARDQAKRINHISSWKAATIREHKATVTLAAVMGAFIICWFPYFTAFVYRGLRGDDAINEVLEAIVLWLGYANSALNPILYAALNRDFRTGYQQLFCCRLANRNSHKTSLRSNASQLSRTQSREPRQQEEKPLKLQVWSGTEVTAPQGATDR
- Assay type: functional, cell-based
measurement-label: AC50

• COc1ccc2c(c1)C(=O)N(CCc1ccc(S(=O)(=O)NC(=O)NC3CCCCC3)cc1)C(=O)C2(C)C = > 30 µM
• O=C(C[S+]([O-])C(c1ccccc1)c1ccccc1)NO (centres undefined) = > 30 µM
• CN1CCc2cccc3c2[C@H]1Cc1ccc(O)c(O)c1-3 = > 10 µM
• CO/N=C(\C(=O)N[C@@H]1C(=O)N2C(C(=O)[O-])=C(C[N+]3(C)CCCC3)CS[C@H]12)c1csc(N)n1 = > 30 µM
• CN1C(=O)N(C)C2C1N(C)C(=O)N2C (centres undefined) = > 30 µM
• CN1CCN(C(=O)OC2c3nccnc3C(=O)N2c2ccc(Cl)cn2)CC1 (centres undefined) = > 10 µM
• CS(=O)(=O)c1ccc([C@@H](O)[C@@H](CO)NC(=O)C(Cl)Cl)cc1 = > 30 µM
• COC(=O)C1=C(C)NC(C)=C(C(=O)OC(C)C)C1c1cccc2nonc12 (centres undefined) = > 30 µM
• Cc1cccc(C)c1OCC(C)N (centres undefined) = > 30 µM

====

- experimental-target: UniProt:P07550
- Sequence (P07550 whole entry): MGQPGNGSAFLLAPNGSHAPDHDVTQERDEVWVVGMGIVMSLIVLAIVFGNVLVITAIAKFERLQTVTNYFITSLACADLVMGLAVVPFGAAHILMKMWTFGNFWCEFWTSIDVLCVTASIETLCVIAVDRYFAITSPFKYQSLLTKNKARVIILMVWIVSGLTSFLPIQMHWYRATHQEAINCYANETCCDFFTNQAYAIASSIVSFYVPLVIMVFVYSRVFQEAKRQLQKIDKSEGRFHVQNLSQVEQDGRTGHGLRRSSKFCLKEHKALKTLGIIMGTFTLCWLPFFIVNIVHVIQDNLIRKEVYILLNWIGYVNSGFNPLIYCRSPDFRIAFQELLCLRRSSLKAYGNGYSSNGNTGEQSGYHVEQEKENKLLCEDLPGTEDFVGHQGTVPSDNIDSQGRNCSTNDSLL
- Format: functional, cell-based
measurement-label: AC50

- CCCC(CCC)C(=O)O[C@H]1C[C@H]2CC[C@@H](C1)[N+]2(C)C: > 30 µM
- CC(C(O)c1ccc(O)cc1)N1CCC(Cc2ccccc2)CC1 (configuration not stated): > 30 µM
- NS(=O)(=O)c1cc(Cl)c(Cl)c(S(N)(=O)=O)c1 [DICHLORPHENAMIDE]: > 30 µM
- O=C1CN=C(c2ccccc2)c2cc(Cl)ccc2N1CC(F)(F)F: > 30 µM
- C[C@H]1O[C@H](O[C@H]2[C@H](O)[C@@H](O)[C@@H](O[C@H]3[C@H](O)[C@@H](O)C(O)O[C@@H]3CO)O[C@@H]2CO)[C@H](O)[C@@H](O)[C@@H]1N[C@H]1C=C(CO)[C@@H](O)[C@H](O)[C@H]1O (some centres not stated): > 30 µM
- CO/N=C(\C(=O)N[C@@H]1C(=O)N2C(C(=O)OCOC(=O)C(C)(C)C)=C(C)CS[C@H]12)c1csc(N)n1: > 30 µM
- C=C1C[C@@H]2[C@H](CC[C@]3(C)C(=O)CC[C@@H]23)[C@@]2(C)C=CC(=O)C=C12: > 30 µM

====

- experimental-target: Gamma-aminobutyric acid receptor subunit alpha-1 (Rattus norvegicus); note: assay procedure not described here
- Sequence (P62813 whole entry): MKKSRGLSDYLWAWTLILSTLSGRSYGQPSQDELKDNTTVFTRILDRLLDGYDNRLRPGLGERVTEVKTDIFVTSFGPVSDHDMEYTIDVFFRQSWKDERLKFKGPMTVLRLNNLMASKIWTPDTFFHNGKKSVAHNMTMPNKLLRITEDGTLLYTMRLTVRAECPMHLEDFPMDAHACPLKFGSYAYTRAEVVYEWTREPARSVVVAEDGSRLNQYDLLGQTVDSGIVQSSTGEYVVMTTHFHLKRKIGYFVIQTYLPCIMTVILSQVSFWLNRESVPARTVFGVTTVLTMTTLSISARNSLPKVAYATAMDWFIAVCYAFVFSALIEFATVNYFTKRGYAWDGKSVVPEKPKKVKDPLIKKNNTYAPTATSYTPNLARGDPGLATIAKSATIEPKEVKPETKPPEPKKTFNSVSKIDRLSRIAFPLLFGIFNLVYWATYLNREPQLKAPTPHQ
measurement-label: AC50

- NC(N)=Nc1nc(CSCCC(N)=NS(N)(=O)=O)cs1: > 10 µM
- CC(=O)OCC(=O)[C@@]1(O)CC[C@H]2[C@@H]3CCC4=CC(=O)CC[C@]4(C)[C@H]3C(=O)C[C@@]21C [CORTISONE ACETATE]: > 30 µM
- CCNC(C)Cc1cccc(C(F)(F)F)c1 (configuration not stated): > 10 µM
- CN[C@@H](C)[C@H](O)c1ccccc1: > 10 µM
- COC(=O)[C@@H]1CC2=CC(=O)CC[C@]2(C)[C@@]23O[C@@H]2C[C@@]2(C)[C@@H](CC[C@@]24CCC(=O)O4)[C@H]13: > 10 µM
- CCCCCCC(C)(C)c1cc(O)c2c(c1)OC(C)(C)C1CCC(=O)CC21 (configuration not stated): > 30 µM
- CCN(CC)CCOC(=O)c1ccc(N)cc1: > 10 µM
- CCN(CC)CCNC(=O)c1cc(Cl)c(N)cc1OC [METOCLOPRAMIDE]: > 10 µM
- CN1C(=O)CC(=O)N(c2ccccc2)c2cc(Cl)ccc21: > 10 µM
- CN(C)CCCN1c2ccccc2CCc2ccc(Cl)cc21: > 10 µM
- NS(=O)(=O)c1cc(-c2nnn[nH]2)c(NCc2cccs2)cc1Cl [AZOSEMIDE]: > 30 µM
- CN1CCCN=C1COC(=O)C(O)(c1ccccc1)C1CCCCC1 (configuration not stated): > 10 µM

====

Reported AC50 by item:
- experimental-target: Neuronal acetylcholine receptor subunit alpha-4 (Homo sapiens, UniProt P43681); note: assay procedure not described here
- Sequence (P43681 whole entry): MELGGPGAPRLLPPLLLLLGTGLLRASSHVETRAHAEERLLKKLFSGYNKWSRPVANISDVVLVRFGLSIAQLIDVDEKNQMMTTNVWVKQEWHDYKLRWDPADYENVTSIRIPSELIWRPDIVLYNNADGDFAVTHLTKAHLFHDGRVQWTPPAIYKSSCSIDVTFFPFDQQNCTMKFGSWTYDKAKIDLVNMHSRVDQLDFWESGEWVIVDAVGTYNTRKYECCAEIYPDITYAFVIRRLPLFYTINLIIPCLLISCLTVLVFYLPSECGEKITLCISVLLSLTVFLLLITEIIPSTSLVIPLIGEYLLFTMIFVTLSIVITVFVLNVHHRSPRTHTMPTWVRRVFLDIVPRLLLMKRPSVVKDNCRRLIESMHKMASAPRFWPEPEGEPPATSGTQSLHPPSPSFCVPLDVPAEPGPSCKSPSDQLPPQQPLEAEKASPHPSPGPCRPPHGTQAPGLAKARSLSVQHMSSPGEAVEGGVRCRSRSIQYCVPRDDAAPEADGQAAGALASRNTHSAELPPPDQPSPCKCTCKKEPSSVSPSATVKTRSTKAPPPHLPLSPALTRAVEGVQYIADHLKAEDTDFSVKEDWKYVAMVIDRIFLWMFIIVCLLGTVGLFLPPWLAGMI
measurement-label: AC50

* N[C@@H](CSCC(=O)O)C(=O)O | > 30 µM
* CN1CCCN=C1COC(=O)C(O)(c1ccccc1)C1CCCCC1 (configuration not stated) | > 10 µM
* [H]/N=C(/N)c1ccc(NCc2nc3cc(C(=O)N(CCC(=O)O)c4ccccn4)ccc3n2C)cc1 | > 30 µM
* CO/N=C(\C(=O)N[C@@H]1C(=O)N2C(C(=O)[O-])=C(C[N+]3(C)CCCC3)CS[C@H]12)c1csc(N)n1 | > 300 µM
* CC(C(=O)O)c1ccc(C(=O)c2cccs2)cc1 (configuration not stated) | > 10 µM
* COc1c(C)c2c(c(O)c1C/C=C(\C)CCC(=O)OCCN1CCOCC1)C(=O)OC2 [MYCOPHENOLATE MOFETIL] | > 30 µM
* C[C@H]1O[C@H](O[C@H]2[C@H](O)[C@@H](O)[C@@H](O[C@H]3[C@H](O)[C@@H](O)C(O)O[C@@H]3CO)O[C@@H]2CO)[C@H](O)[C@@H](O)[C@@H]1N[C@H]1C=C(CO)[C@@H](O)[C@H](O)[C@H]1O (some centres not stated) | > 30 µM

====

Cannabinoid receptor 1 (Homo sapiens) measurements of AC50, listed per entry. Note: assay procedure not described here.
Sequence (P21554 whole entry): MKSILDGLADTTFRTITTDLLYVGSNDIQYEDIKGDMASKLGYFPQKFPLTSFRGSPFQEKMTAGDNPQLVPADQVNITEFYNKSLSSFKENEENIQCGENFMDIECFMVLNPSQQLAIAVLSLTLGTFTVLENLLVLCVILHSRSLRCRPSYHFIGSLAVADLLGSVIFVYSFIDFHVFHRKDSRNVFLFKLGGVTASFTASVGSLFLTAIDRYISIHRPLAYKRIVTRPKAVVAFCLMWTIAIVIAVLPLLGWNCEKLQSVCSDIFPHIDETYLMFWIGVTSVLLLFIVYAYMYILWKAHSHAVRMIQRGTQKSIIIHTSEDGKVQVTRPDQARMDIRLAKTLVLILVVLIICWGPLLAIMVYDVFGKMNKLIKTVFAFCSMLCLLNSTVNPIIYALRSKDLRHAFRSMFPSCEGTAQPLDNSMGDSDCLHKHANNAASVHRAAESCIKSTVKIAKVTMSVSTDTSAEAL
measurement-label: AC50

• COc1ccccc1OCC(O)COC(N)=O (centres undefined) [METHOCARBAMOL] = > 10 µM
• O=C(Nc1ccccc1)OCC(CN1CCCCC1)OC(=O)Nc1ccccc1 (centres undefined) [DIPERODON] = > 10 µM
• NS(=O)(=O)c1cc2c(cc1Cl)NCNS2(=O)=O [HYDROCHLOROTHIAZIDE] = > 10 µM
• COC(=O)C1=C(C)NC(C)=C(C(=O)OC)C1c1ccccc1[N+](=O)[O-] [NIFEDIPINE] = > 10 µM
• C#C[C@]1(O)CC[C@H]2[C@@H]3CCc4cc(O)ccc4[C@H]3CC[C@@]21C [ETHINYL ESTRADIOL] = > 10 µM
• Cc1c(C(=O)Nc2ccc(N3C[C@@H](C)O[C@@H](C)C3)nc2)cccc1-c1ccc(OC(F)(F)F)cc1 [SONIDEGIB] = > 10 µM
• CC(C)(C(=O)c1cccnc1)c1cccnc1 [METYRAPONE] = > 10 µM
• COc1ccc2c(c1)C(=O)N(CCc1ccc(S(=O)(=O)NC(=O)NC3CCCCC3)cc1)C(=O)C2(C)C [GLIQUIDONE] = > 30 µM
• COc1cc2c(cc1OC)C(=O)C(CC1CCN(Cc3ccccc3)CC1)C2 (centres undefined) [DONEPEZIL] = > 10 µM

====

- experimental-target: Alpha-2A adrenergic receptor (Homo sapiens, UniProt P08913); note: assay procedure not described here
- Sequence (P08913 whole entry): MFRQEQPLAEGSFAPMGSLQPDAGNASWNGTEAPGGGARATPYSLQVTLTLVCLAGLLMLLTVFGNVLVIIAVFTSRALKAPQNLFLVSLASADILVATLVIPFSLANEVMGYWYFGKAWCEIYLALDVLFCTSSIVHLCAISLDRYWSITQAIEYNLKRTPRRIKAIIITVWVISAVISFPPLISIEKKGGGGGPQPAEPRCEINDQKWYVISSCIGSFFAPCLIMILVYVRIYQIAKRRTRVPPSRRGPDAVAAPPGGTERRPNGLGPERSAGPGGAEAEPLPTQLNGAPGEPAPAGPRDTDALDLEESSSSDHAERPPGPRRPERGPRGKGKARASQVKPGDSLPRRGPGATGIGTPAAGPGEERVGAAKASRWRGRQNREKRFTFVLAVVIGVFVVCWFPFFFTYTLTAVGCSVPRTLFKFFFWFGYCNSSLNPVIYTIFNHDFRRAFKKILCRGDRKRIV
Recorded AC50 values for a group of molecules are listed next.
measurement-label: AC50

- O=C1c2ccccc2C(=O)C1C(=O)C(c1ccccc1)c1ccccc1 [DIPHENADIONE]: > 30 µM
- CC(=O)OC[C@H]1O[C@@H](n2ccc(=O)[nH]c2=O)[C@H](OC(C)=O)[C@@H]1OC(C)=O [URIDINE TRIACETATE]: > 30 µM
- CN(Cc1cc(Br)cc(Br)c1N)C1CCCCC1 [BROMHEXINE]: > 30 µM
- C#C[C@]1(O)CC[C@H]2[C@@H]3CCC4=CC(=O)CC[C@@H]4[C@H]3CC[C@@]21CC [LEVONORGESTREL]: > 30 µM
- COc1ccc2c(c1)OC(C)(C)C(c1ccccc1)C2c1ccc(OCCN2CCCC2)cc1 (configuration not stated) [ORMELOXIFENE]: 10.6 µM
- CCOc1ccc(/C=C2\NCCc3cc(OCC)c(OCC)cc32)cc1OCC [DROTAVERINE]: 5.83 µM
- C#C[C@]1(O)CC[C@H]2[C@@H]3CCc4cc(O)ccc4[C@H]3CC[C@@]21C [ETHINYL ESTRADIOL]: > 30 µM
- Cc1cc2c(cc1CC(=O)c1sccc1S(=O)(=O)Nc1onc(C)c1Cl)OCO2 [SITAXENTAN]: > 30 µM
- COc1ccc(CCC(C)NCC(O)c2ccc(O)c([S+](C)[O-])c2)cc1 (configuration not stated) [SULFINALOL]: > 30 µM
- CS(=O)(=O)Nc1cc2occ(NC=O)c(=O)c2cc1Oc1ccccc1 [IGURATIMOD]: > 30 µM
- Cn1cc[nH]c1=S [METHIMAZOLE]: > 30 µM
- CC(C(=O)O)c1ccc(N2CC=CC2)c(Cl)c1 (configuration not stated) [PIRPROFEN]: > 30 µM
- O=C(Nc1ccccc1)OCC(CN1CCCCC1)OC(=O)Nc1ccccc1 (configuration not stated) [DIPERODON]: > 30 µM
- O=C(O)CCn1c2c(c3ccccc31)C[C@H](NS(=O)(=O)c1ccc(F)cc1)CC2 [RAMATROBAN]: > 30 µM
- CN(C)c1ccc(C(=C2C=CC(=[N+](C)C)C=C2)c2ccc(N(C)C)cc2)cc1 [GENTIAN VIOLET]: 1.43 µM
- CN1CCN(C(c2ccccc2)c2ccccc2)CC1 [CYCLIZINE]: 3.47 µM
- O=C(COc1ccc(Cl)cc1)N1CCN(Cc2ccc3c(c2)OCO3)CC1 [FIPEXIDE]: 11.1 µM
- C[C@@H]1C[C@H]2[C@@H]3C[C@H](F)C4=CC(=O)C(Cl)=C[C@]4(C)[C@@]3(F)[C@@H](O)C[C@]2(C)[C@@]1(O)C(=O)CO [HALOMETASONE]: > 30 µM
- O=C1[C@H](CC[C@H](O)c2ccc(F)cc2)[C@@H](c2ccc(O)cc2)N1c1ccc(F)cc1 [EZETIMIBE]: > 30 µM
- CCO/N=C(\C(=O)N[C@@H]1C(=O)N2C(C(=O)[O-])=C(Sc3nc(-c4cc[n+](C)cc4)cs3)CS[C@H]12)c1nsc(N)n1 [CEFTAROLINE]: > 30 µM
- OC[C@@H](O)[C@@H](O)[C@H](O)[C@H](O)CO [MANNITOL]: > 30 µM
- COc1cc(NCc2ccc3nc(N)nc(N)c3c2C)cc(OC)c1OC [TRIMETREXATE]: > 30 µM

The origin of these recorded values is ChEMBL document CHEMBL5291721.
